Some variants, each annotated with its measured ratio to parent.
B1: Flag-fused N-terminal-truncated AdipoR1 (residues 89-375) [human] / GST-fused P5 (GLYYF) [human] (parent complex)
chain 1: EGRWRVIPYDVLPDWLKDNDYLLHGHRPPMPSFRACFKSIFRIHTETGNIWTHLLGFVLFLFLGILTMLRPNMYFMAPLQEKVVFGMFFLGAVLCLSFSWLFHTVYCHSEKVSRTFSKLDYSGIALLIMGSFVPWLYYSFYCSPQPRLIYLSIVCVLGISAIIVAQWDRFATPKHRQTRAGVFLGLGLSGVVPTMHFTIAEGFVKATTVGQMGWFFLMAVMYITGAGLYAARIPERFFPGKFDIWFQSHQIFHVLVVAAAFVHFYGVSNLQEFRYGLEGGCTDDTLL
chain 2: GLYYF

- Variants of: B1
- method: GST pulldown; n = 3 technical replicates/group; parent: 1; read off a plot
quantity.kind: ratio to parent

variant_name="chain 1 R274A" quantity_kind="ratio to parent" result=~0.83
variant_name="chain 1 F273A" quantity_kind="ratio to parent" result=~0.73
variant_name="chain 1 F197E" quantity_kind="ratio to parent" result=~0.3
variant_name="chain 1 F197A" quantity_kind="ratio to parent" result=~0.57
